Molecular target: Dihydroorotate dehydrogenase (quinone), mitochondrial (Plasmodium falciparum (isolate 3D7)) (UniProt Q08210)
Sequence (Q08210 whole entry, looked up): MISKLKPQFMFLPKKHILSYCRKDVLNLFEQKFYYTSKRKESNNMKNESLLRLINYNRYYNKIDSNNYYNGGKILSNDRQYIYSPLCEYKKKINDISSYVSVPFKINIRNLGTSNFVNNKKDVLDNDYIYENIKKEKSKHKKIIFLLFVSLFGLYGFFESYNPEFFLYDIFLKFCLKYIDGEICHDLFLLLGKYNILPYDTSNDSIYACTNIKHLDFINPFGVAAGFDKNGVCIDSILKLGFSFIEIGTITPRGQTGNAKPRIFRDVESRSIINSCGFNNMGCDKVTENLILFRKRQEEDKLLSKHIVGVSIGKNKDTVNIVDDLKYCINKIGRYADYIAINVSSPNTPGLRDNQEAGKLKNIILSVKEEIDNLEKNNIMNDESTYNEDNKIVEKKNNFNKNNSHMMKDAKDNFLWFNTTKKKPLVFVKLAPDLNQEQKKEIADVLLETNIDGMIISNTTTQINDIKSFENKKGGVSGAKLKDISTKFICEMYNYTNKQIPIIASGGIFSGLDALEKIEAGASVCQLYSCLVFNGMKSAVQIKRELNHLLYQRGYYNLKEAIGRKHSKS
Assay: PfDHODH enzyme inhibitors, primary screen, biochemical, C-terminal His tag, absorbance 600 nm (AID 1175);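 note: recombinant parasite enzyme with a five histidine tag at its C terminus; test concentration not given here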
Details: DCIP absorbance 600 nm, called active from +8 up or from −8 down
Calls of active or inactive are those of the source.
Result category, one only: active, inactive

Worked cases, answers included:
- Cc1c(NC(=O)CC#N)c(=O)n(-c2ccccc2)n1C: inactive
- COc1cc(CO)ccc1OC(C)=O: inactive
- CC(C)c1ccc(NN2C(C(O)c3ccc(N(C)C)cc3)C=CC3C(=O)N(c4ccccc4)C(=O)C32)cc1 (stereo not drawn): inactive

Ask: Name the outcome recorded for CCCN1C(=O)[C@@]2(CCC(=O)OC(C)(C)C)N=C(c3ccc(OCCCO)cc3)O[C@H]2c2ccccc21 in the assay.
Reply: inactive

Ask: Name the outcome recorded for CN(C)CCCCNC(=O)[C@H]1C[C@H]2C(=O)N[C@@H](Cc3ccccc3)C(=O)N2[C@H]1c1ccc(O)cc1 in the assay.
Reply: active

Ask: Name the outcome recorded for [N-]=[N+]=NCc1ccccc1C[C@]1(C(=O)O)N=C(c2ccc(OCCCO)cc2)O[C@H]1c1ccccc1 in the assay.
Reply: inactive

Ask: Name the outcome recorded for COc1ccc(C#Cc2ccc3c(c2)[C@]2(C(=O)N3)[C@H](c3ccc(O)cc3)N3[C@H](c4ccccc4)[C@H](c4ccccc4)OC(=O)[C@H]3[C@@H]2C(=O)N2CCCCCCC2)cc1 in the assay.
Reply: inactive

Ask: Name the outcome recorded for [N-]=[N+]=NCc1ccccc1C[C@]1(C(=O)O)N=C(c2ccc(OCCCO)cc2)O[C@H]1c1ccccc1CN=[N+]=[N-] in the assay.
Reply: inactive

* * *

Test system: Sam68 (KHDRBS1)
Assay: Sam68 small-molecule binders, primary screen, biochemical, small-molecule microarray, 635 nm fluorescence (AID 1125);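 note: score merges 667 nm channel intensity with signal to noise over triplicate slides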
Conditions: small-molecule microarray binding, higher = more signal
Measured Parameter: composite z-score
Kindly provide the number alone.

• COCCOC(=O)N1C(=O)[C@@]2(c3ccccc31)[C@H](c1ccc(O)cc1)N1[C@H](c3ccccc3)[C@H](c3ccccc3)OC(=O)[C@H]1[C@@H]2C(=O)N1CCc2cc(OC)c(OC)cc2C1 = 1.32

Switching to the query record.
Ask: Which composite z-score reading was recorded for the molecule CC(C)CNC(=O)[C@@]1(c2ccc([N+](=O)[O-])cc2)CC(=O)N(CC23CC4CC(CC(C4)C2)C3)[C@@H]1c1ccc(CO)cc1I ?
Reply: 1.32

* * *

Reported z-score values are given for each entry in this list.
Assay: HepG2 liver cancer cell viability effects, profiling panel, resazurin fluorescence, 24 h, PK04 Diversity Set (AID 1172); note: test concentration not given here
Conditions: higher = more signal
Kindly provide the number alone.

Consider the worked cases shown below.
• CN(C)C(=O)[C@]1(CCC(=O)OC(C)(C)C)N=C(c2ccc(OCCCO)cc2)O[C@@H]1c1ccccc1N=[N+]=[N-] = 1.49
• CC(=CC1CCCCC1)[C@@H](NC(=O)c1ccc(C(F)(F)F)cc1)c1ccc(-c2ccccc2)cc1 = 0.0536
• COC(=O)[C@@]1(Cc2ccccc2)[C@H]2c3cc(C(=O)N4CCCC4)n(C)c3C[C@H]2CN1C(=O)c1ccccc1 = -0.533
• C=C[C@@H](COC(C)=O)N(Cc1ccccc1[N+](=O)[O-])S(=O)(=O)c1ccc(Br)cc1 = -0.798
• O=C1O[C@H](c2ccccc2)[C@H](c2ccccc2)N2[C@H]1[C@@H](C(=O)Nc1nc3ccccc3s1)[C@]1(C(=O)Nc3ccccc31)[C@H]2c1ccc(O)cc1 = -0.166

Ask: Which z-score reading was recorded for the compound CC(C)C(=C=CC[C@H](O)c1ccccc1OCCO)C[C@H](O)c1ccccn1 ?
Reply: 0.644

Ask: Which z-score reading was recorded for the compound C=CCOC(=O)[C@H]1[C@@H]2C(=O)O[C@@H](c3ccccc3)[C@@H](c3ccccc3)N2[C@@H](c2ccc(OCCOC(=O)[C@@H]3C[C@@H]4C(=O)NCC(=O)N4[C@@H]3c3ccc(O)cc3)cc2)[C@]12C(=O)Nc1ccccc12 ?
Reply: 0.558

* * *

Tested on: Sam68 (KHDRBS1)
Experiment: Sam68 small-molecule binders, primary screen, biochemical, small-molecule microarray, 635 nm fluorescence (AID 1125);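 note: score merges 667 nm channel intensity with signal to noise over triplicate slides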
Conditions: small-molecule microarray binding, higher = more signal
Classification field: enter YES for composite z-score values not below 1, NO for values below it.

Worked cases, answers included:
- CC(C)C(O)C1C=CC2C(=O)N(c3ccccc3)C(=O)C2N1Nc1ccc(C#N)cc1 (stereo unspecified): YES
- COc1ccc([Si](C)(C)[C@@H]2[C@@H](CCn3cc([C@H](O)c4ccccc4)nn3)O[C@]3(C(=O)N(Cc4cccc(N5CCOC5=O)c4)c4ccccc43)[C@H]2C)cc1: NO
- Cc1ccccc1C(O)C1C=CC2C(=O)N(C)C(=O)C2N1N1CCCCC1 (stereo unspecified): YES
- CC(=O)C1=CCC(c2ccccc2)N(S(=O)(=O)c2ccc(C)cc2)C1 (stereo unspecified): NO
- COC(=O)c1ccc(C(O)C2C=CC3C(=O)N(C)C(=O)C3N2NC(=O)OC(C)(C)C)o1 (stereo unspecified): NO
- O=C1OCCC=C[C@H]2OC34C=CCN(Cc5ccccc5)C(=O)[C@H]3N(CCCCCCO)C(=O)[C@@H]4C12 (stereo partly specified): NO
- [N-]=[N+]=NCc1ccccc1[C@H]1OC(c2ccc(OCCCO)cc2)=N[C@@]1(CCS(=O)(=O)c1ccccc1)C(=O)N1CCOCC1: YES
- CCCN1C(=O)[C@]2(COC(c3ccc(OCCCO)cc3)=N2)Cc2ccccc21: YES

Ask: In plain terms: is recorded composite z-score at least 1 for Cc1ccc(S[C@]2(C(=O)NC3CC3)CC(=O)N(C3CCCCC3)[C@@H]2c2ccc(CO)cc2I)cc1 ?
Reply: YES

Ask: In plain terms: is recorded composite z-score at least 1 for O=C1C2C=CC(C(O)c3ccc(F)cc3)N(Nc3ccccc3)C2C(=O)N1c1ccccc1 (stereo unspecified) ?
Reply: NO

Ask: In plain terms: is recorded composite z-score at least 1 for C=CC[C@@H](OC(=O)Nc1ccc(OC)cc1)c1ccc(O)c2ccccc12 ?
Reply: YES

Ask: In plain terms: is recorded composite z-score at least 1 for COCCCNC(=O)[C@@]1(CCC(=O)OC(C)(C)C)N=C(c2ccc(OCCCO)cc2)O[C@H]1c1ccccc1CN=[N+]=[N-] ?
Reply: YES

Ask: In plain terms: is recorded composite z-score at least 1 for C[C@]1(C(=O)NCc2ccccc2)c2ccccc2C(=O)N(Cc2ccc(OC(F)(F)F)cc2)[C@H]1c1ccc(CO)cc1 ?
Reply: NO

Ask: In plain terms: is recorded composite z-score at least 1 for CCOC(=O)C1=C[C@@H](C(C)C)N(S(=O)(=O)c2ccc(C)cc2)[C@H]1c1ccc(C(C)C)cc1 ?
Reply: YES

Ask: In plain terms: is recorded composite z-score at least 1 for CCOC(=O)C[C@H]1[C@H](OC(=O)Cc2ccc3c(c2)OCO3)[C@@H](NC(=O)C2CCCCC2)c2cc(OCCCO)ccc2N1C(=O)Cc1ccc(OC)cc1 ?
Reply: YES

* * *

Test system: Human papillomavirus type 1a protein E7 (residues 44-93)
Test: HPV1a E7 fragment binders on microarrays, primary screen, biochemical, small-molecule microarray, residues 44-93, 635 nm fluorescence (AID 1108);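 note: E7 fragment applied at 1 µg/mL in TBST for 1 h at 4 C; score combines spot fluorescence with its signal to noise ratio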
Settings: small-molecule microarray binding, fluorescence 635 nm; higher = more signal
Measured Parameter: composite z-score
Kindly provide the number alone.

- C[C@H]1NC(=O)[C@H](Cc2ccccc2)NC(=O)[C@@]23C(=O)N[C@@H](Cc4ccccc4)C2[C@H](C)[C@@]2(C)O[C@H]2C3/C=C/C/C=C\CNC1=O (some centres not stated): -0.794
- CC(C)C(=C=CC[C@@H](O)c1ccccc1OCCO)C[C@@H](O)c1ccccn1: 0.752
- Cc1ccc(S[C@]2(C(=O)NC3CC3)CC(=O)N(C3CCCCC3)[C@@H]2c2ccc(CO)cc2I)cc1: 1.43
- CCOC(=O)[C@H]1C/C=C/C[C@H](C(=O)OCC)C(=O)O[C@H]2[C@@H](OC)O[C@H](CO)[C@@H](OC(=O)Nc3ccc4c(c3)OCO4)[C@@H]2OC1=O: 0.433
- [N-]=[N+]=NCc1ccccc1C[C@]1(C(=O)O)N=C(c2ccc(OCCCO)cc2)O[C@H]1c1ccccc1: 0.903
- Cc1ccc([C@H]2[C@H](C(=O)O)[C@H](Sc3ccccc3)[C@@H](C(C)C)N2S(=O)(=O)c2ccc(C)cc2)cc1: 1.41

Switching to the query record.
Ask: Which composite z-score reading was recorded for the molecule CCOC(=O)C[C@H]1[C@H](OC(=O)c2ccc(-c3ccccc3)cc2)[C@@H](NC(=O)c2ccc3ccccc3c2)c2cc(OCCCO)ccc2N1C(=O)Cc1ccc(OC)cc1 ?
Reply: 0.758
